Measured on: RAC-alpha serine/threonine-protein kinase [139-480,S378A,S381A,T450D,S473D] (Homo sapiens, UniProt P31749, S378A/S381A/S473D/T450D)
Construct: 139-480
Sequence (P31749 139-480 S378A/S381A/T450D/S473D): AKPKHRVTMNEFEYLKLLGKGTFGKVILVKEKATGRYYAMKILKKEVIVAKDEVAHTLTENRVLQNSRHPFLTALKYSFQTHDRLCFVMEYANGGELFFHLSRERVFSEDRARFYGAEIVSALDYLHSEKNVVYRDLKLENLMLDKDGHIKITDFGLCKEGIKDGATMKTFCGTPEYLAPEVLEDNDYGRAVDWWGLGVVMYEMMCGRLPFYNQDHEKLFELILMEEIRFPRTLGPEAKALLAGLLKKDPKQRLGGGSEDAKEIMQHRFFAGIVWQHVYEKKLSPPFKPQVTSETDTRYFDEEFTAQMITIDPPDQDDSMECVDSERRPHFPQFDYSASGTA
Method: Akt Kinase Assay
Measured endpoint: pIC50
# reply with the number alone; pIC50 is -log10 of concentration in mol/L

Answered examples (8):
- Cc1n[nH]c2ccc(-c3cncc(OC[C@@H](N)Cc4ccccc4Cl)c3)cc12: 7.54
- Cc1n[nH]c2ccc(-c3cncc(OC[C@@H](N)Cc4ccccc4Br)c3)cc12: 7.64
- Cc1n[nH]c2ccc(-c3cncc(OC[C@@H](N)Cc4ccc(Cl)c(Cl)c4)c3)cc12: 8.74
- Cc1n[nH]c2ccc(-c3cncc(OC[C@@H](N)Cc4ccc(Br)cc4F)c3)cc12: 8.00
- Cc1n[nH]c2ccc(-c3cncc(OC[C@@H](N)Cc4ccc(Br)cc4)c3)cc12: 8.30
- Cc1cc(C[C@H](N)COc2cncc(-c3ccc4[nH]nc(C)c4c3)c2)ccc1Br: 8.60
- Cc1n[nH]c2ccc(-c3cncc(OC[C@@H](N)Cc4ccc(F)c(Cl)c4)c3)cc12: 8.51
- Cc1ccc(C[C@H](N)COc2cncc(-c3ccc4[nH]nc(C)c4c3)c2)cc1F: 8.62

Would you kindly look at the next entry?
q: What measured pIC50 goes with Cc1n[nH]c2ccc(-c3cncc(OC[C@@H](N)Cc4cccc(OCCN5CCOCC5)c4)c3)cc12 ?
a: 6.12
